All figures here come from paper PMC6600671.

- assay_comment: Single dose pharmacokinetic study in male ICR mice
- Type: in vivo
- condition_info: mouse, plasma; PO 30 mg/kg, male ICR mice
measurement_label: AUC(0-inf) (ng·h/mL)
Give bare numbers, in ng·h/mL.

Inquiry: Answer with reported AUC(0-inf) of O=S(=O)(NCCCOc1ccccc1-c1cnc[nH]1)C(F)(F)F
Reply text: 13100

###

- assay_comment: Single dose pharmacokinetic study in male ICR mice
- Format: in vivo
- condition_info: mouse, plasma; iv 3 mg/kg, male ICR mice
- Protocol: The animal Care and Welfare Committee of Institute of Materia Medica, Chinese Academy of Medical Sciences approved all animal care, housing, and laboratory procedures. Male ICR mice were used in the single dose pharmacokinetic studies. […] The supernatant were analyzed by liquid chromatography/tandem mass spectrometry (Agilent Technologies, Santa Clara, CA, USA) with a Zobax C18 column (50 mm × 2.1 mm, 3.5 µm). […]
measurement_label: AUC(0-t) (ng·h/mL)
Answers are plain numbers, in ng·h/mL.

Inquiry: Answer with reported AUC(0-t) of O=S(=O)(NCCCOc1ccccc1-c1cnc[nH]1)C(F)(F)F [DX-03-12]
Reply text: 1350

###

- test_system: rhTDO (Homo sapiens)
- Sequence (P48775 whole entry): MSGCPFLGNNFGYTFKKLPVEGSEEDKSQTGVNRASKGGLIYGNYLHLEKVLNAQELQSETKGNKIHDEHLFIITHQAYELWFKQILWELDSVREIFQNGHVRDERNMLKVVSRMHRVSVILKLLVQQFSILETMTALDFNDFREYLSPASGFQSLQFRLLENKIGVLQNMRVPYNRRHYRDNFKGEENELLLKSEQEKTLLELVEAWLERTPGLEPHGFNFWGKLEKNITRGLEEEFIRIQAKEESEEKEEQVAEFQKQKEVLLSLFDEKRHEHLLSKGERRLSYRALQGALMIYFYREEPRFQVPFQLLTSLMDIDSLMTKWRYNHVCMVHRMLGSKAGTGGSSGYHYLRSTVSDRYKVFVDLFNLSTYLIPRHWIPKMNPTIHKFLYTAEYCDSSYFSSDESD
- assay_comment: Enzyme-based TDO activity assay (kynurenine absorbance at 492 nm)
- Type: biochemical
- condition_info: at 50 μM; shown when calculated IC50 >50 μM; read-out: TDO inhibition rate (%) at 50 μM
Values of inhibition at 50 µM greater than or equal to 20% map to YES; values below map to NO.

Previously resolved entries follow.
compound	discrete_label
Oc1ccc(Cl)cc1-c1cn(Cc2ccc(C(F)(F)F)cc2)nn1	YES
N#CCc1c[nH]c2ccccc12	NO
Cc1ccccc1-c1ccc2[nH]cc(CNO)c2c1	YES
O=[N+]([O-])c1c[nH]c2ccccc12	NO
ONCc1cc2ccccc2[nH]1 [DX-01-17, N-((1H-indol-2-yl)methyl)hydroxylamine]	YES

Inquiry: Has C[S+]([O-])c1[nH]c2ccc(F)cc2c1C1CC(=O)NC1=O (racemic) a recorded inhibition at 50 µM greater than or equal to 20%?
Reply text: NO

Inquiry: Has CCOC(=O)c1[nH]c2ccc(F)cc2c1C1CC(=O)NC1=O (racemic) a recorded inhibition at 50 µM greater than or equal to 20%?
Reply text: NO

Inquiry: Has NS(=O)(=O)NCCCOc1ccccc1-c1c[nH]cn1 a recorded inhibition at 50 µM greater than or equal to 20%?
Reply text: YES

Inquiry: Has Cc1ccc2[nH]cc(C(=O)O)c2c1 a recorded inhibition at 50 µM greater than or equal to 20%?
Reply text: NO

Inquiry: Has O=C1CC(c2c(/C=N/O)[nH]c3ccc(F)cc23)C(=O)N1 (racemic) a recorded inhibition at 50 µM greater than or equal to 20%?
Reply text: NO

Inquiry: Has O=S(=O)(NCCCOc1ccccc1-c1cnc[nH]1)C(F)(F)F a recorded inhibition at 50 µM greater than or equal to 20%?
Reply text: YES

Inquiry: Has COc1ccc2[nH]cc(CCNC(C)=O)c2c1 a recorded inhibition at 50 µM greater than or equal to 20%?
Reply text: NO

Inquiry: Has N#Cc1c[nH]c2ccccc12 a recorded inhibition at 50 µM greater than or equal to 20%?
Reply text: NO

Inquiry: Has Cc1cccc2[nH]cc(C(=O)O)c12 a recorded inhibition at 50 µM greater than or equal to 20%?
Reply text: NO

Inquiry: Has O=C(O)c1c[nH]c2cc([N+](=O)[O-])ccc12 a recorded inhibition at 50 µM greater than or equal to 20%?
Reply text: NO

Inquiry: Has N#CCc1nc2ccccc2o1 a recorded inhibition at 50 µM greater than or equal to 20%?
Reply text: NO

Inquiry: Has COc1ccc(Cl)cc1-c1cn(Cc2ccc(C(F)(F)F)cc2)cn1 a recorded inhibition at 50 µM greater than or equal to 20%?
Reply text: YES

Inquiry: Has Oc1ccc(Cl)cc1-c1cn(Cc2ccc(C(F)(F)F)cc2)cn1 a recorded inhibition at 50 µM greater than or equal to 20%?
Reply text: NO

Inquiry: Has COc1ccc(Cl)cc1-c1nn[nH]c1-c1ccc(C(F)(F)F)cc1 a recorded inhibition at 50 µM greater than or equal to 20%?
Reply text: NO

###

- test_system: rhIDO1 (Homo sapiens)
- assay_comment: Enzyme-based IDO1 activity assay (kynurenine absorbance at 492 nm)
- Assay type: biochemical
- condition_info: at 50 μM; shown when calculated IC50 >50 μM; read-out: IDO inhibition rate (%) at 50 μM
// class assignment uses inhibition at 50 µM with these ranges: zone 1 = under 10%, zone 2 = from 10% up to 20%, zone 3 = 20% and over

Previously resolved entries follow.
compound	discrete_label
O/N=C/c1cc(-c2ccccc2C(F)(F)F)ccc1-c1c[nH]cn1	zone 2
O=C(O)c1c[nH]c2ccc([N+](=O)[O-])cc12	zone 1
O/N=C/c1ccc(-c2ccccc2)cc1-c1c[nH]cn1	zone 1
O=C1C/C(=C\c2c[nH]c3ccccc23)C(=O)N1	zone 1
ONCc1ccccc1-c1c[nH]cn1	zone 2
COc1ccc2[nH]cc(C(=O)O)c2c1	zone 1

Inquiry: Place this compound in its band: O/N=C/c1ccccc1-c1nn[nH]n1
Reply text: zone 2

Inquiry: Place this compound in its band: N#CCc1c[nH]c2ccccc12
Reply text: zone 1

Inquiry: Place this compound in its band: O=[N+]([O-])c1c[nH]c2ccccc12
Reply text: zone 2

Inquiry: Place this compound in its band: COc1ccc(Cl)cc1-c1nn[nH]c1-c1ccc(C(F)(F)F)cc1
Reply text: zone 3

Inquiry: Place this compound in its band: O=C(NO)c1c[nH]c2ccccc12
Reply text: zone 3

Inquiry: Place this compound in its band: Oc1ccc(Cl)cc1-c1cn(Cc2ccc(C(F)(F)F)cc2)cn1
Reply text: zone 1

Inquiry: Place this compound in its band: Cc1ccc2[nH]cc(C(=O)O)c2c1
Reply text: zone 2

Inquiry: Place this compound in its band: COc1ccc(-c2c[nH]cn2)c(/C=N/O)c1
Reply text: zone 3

###

Can you tell me inhibition at 50 µM for the items I'm about to list?
- test_system: rhTDO (Homo sapiens)
- assay_comment: Enzyme-based TDO activity assay (kynurenine absorbance at 492 nm)
- Type: biochemical
- condition_info: at 50 μM; shown when calculated IC50 >50 μM; read-out: TDO inhibition rate (%) at 50 μM
Numbers only, in %.

Below, 6 compounds whose answers are already recorded.
compound	inhibition at 50 µM, %
O/N=C/c1ccccc1-c1nn[nH]n1	20.3
O=C(O)c1cc2ccccc2[nH]1	8.9
Oc1ccc(Cl)cc1-c1nn[nH]c1-c1ccc(C(F)(F)F)cc1	21.4
N#CCc1nc2ccccc2[nH]1	4.5
O/N=C/c1c[nH]c2ccccc12 [DX-01-13, (E) 1H-indole-3-carbaldehyde Oxime]	8.1
O/N=C/c1cc2ccccc2[nH]1 [DX-01-16, (E)-1H-indole-2-carbaldehyde Oxime]	19.7

Give measured inhibition at 50 µM for every item shown.
1. O=C1CC(c2c(CNO)[nH]c3ccc(F)cc23)C(=O)N1 (racemic)
2. O/N=C/c1ccc(-c2ccccc2)cc1-c1c[nH]cn1
3. COc1ccc2[nH]cc(C(=O)O)c2c1
4. O/N=C/c1ccccc1-c1c[nH]cn1
5. FC(F)(F)c1ccc(COc2ccccc2-c2csnn2)cc1

Reply text:
16.3
6.4
8.4
13.9
21.5

###

Can you tell me inhibition at 50 µM for the items I'm about to list?
- test_system: rhIDO1 (Homo sapiens, UniProt P14902)
- Sequence (P14902 whole entry): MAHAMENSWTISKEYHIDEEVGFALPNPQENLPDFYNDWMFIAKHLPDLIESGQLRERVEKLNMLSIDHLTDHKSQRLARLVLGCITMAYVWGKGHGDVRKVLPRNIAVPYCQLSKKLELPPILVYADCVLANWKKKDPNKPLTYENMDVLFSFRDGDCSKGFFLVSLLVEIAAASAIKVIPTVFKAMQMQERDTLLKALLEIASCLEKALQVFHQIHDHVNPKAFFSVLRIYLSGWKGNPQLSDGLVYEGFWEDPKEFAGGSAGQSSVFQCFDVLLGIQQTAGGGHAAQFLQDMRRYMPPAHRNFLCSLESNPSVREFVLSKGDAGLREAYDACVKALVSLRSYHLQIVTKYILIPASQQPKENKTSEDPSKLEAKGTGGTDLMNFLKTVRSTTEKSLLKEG
- assay_comment: Enzyme-based IDO1 activity assay (kynurenine absorbance at 492 nm)
- Type: biochemical
- condition_info: at 50 μM; shown when calculated IC50 >50 μM; read-out: IDO inhibition rate (%) at 50 μM

molecule	inhibition at 50 µM
O/N=C/c1c[nH]c2ccccc12 [DX-01-13, (E) 1H-indole-3-carbaldehyde Oxime]	19.7%
O=C(O)c1c[nH]c2cc([N+](=O)[O-])ccc12	10.2%
O/N=C/c1c(F)cccc1-c1c[nH]cn1	25.6%
CSc1[nH]c2ccc(F)cc2c1C1CC(=O)NC1=O (racemic)	22.6%
O=C1CC(c2c(/C=N/O)[nH]c3ccc(F)cc23)C(=O)N1 (racemic)	40.2%
O=c1[nH]c2ccccc2o1	5.4%
O=C(O)c1c[nH]c2c(Br)cccc12	7.4%
C[S+]([O-])c1[nH]c2ccc(F)cc2c1C1CC(=O)NC1=O (racemic)	20.1%

Give measured inhibition at 50 µM for every item shown.
1. N#Cc1c[nH]c2ccccc12
2. Cc1cccc2[nH]cc(C(=O)O)c12
3. COc1ccc(Cl)cc1-c1cn(Cc2ccc(C(F)(F)F)cc2)cn1
4. COc1ccc(Cl)cc1-c1cn(Cc2ccc(C(F)(F)F)cc2)nn1
5. N#CCc1nc2ccccc2o1
6. CCOC(=O)c1[nH]c2ccc(F)cc2c1C1CC(=O)NC1=O (racemic)
7. O/N=C/c1ccccc1-c1c[nH]cn1

Reply text:
1. 2.6%
2. 2.4%
3. 46.2%
4. 13.5%
5. 15.7%
6. 21.6%
7. 24.2%
